TEST NAME: Single dose study (001 Study) Part A: plasma PK of compound A
Format: in vivo
CONDITION LABEL: human, plasma, po, 50 mg, single oral 50 mg, healthy subjects (Part A); read-out: tmax Median
METRIC: Tmax (h)
# value in h; strip the unit string

Returns the measured Tmax for the input molecule. Input: Cc1ncc(OC[C@@]2(c3cccc(F)c3)C[C@H]2C(=O)Nc2ccc(F)cn2)c(C)n1
2.53

----------
TEST NAME: Single dose study (001 Study) Part A: plasma PK of compound A
Type: in vivo
CONDITION LABEL: human, plasma, po, 2.5 mg, single oral 2.5 mg, healthy subjects (Part A); read-out: t1/2 Median (converted)
METRIC: half-life (h)
# value in h; strip the unit string

Returns the measured half-life for the input compound. Input: Cc1ncc(OC[C@@]2(c3cccc(F)c3)C[C@H]2C(=O)Nc2ccc(F)cn2)c(C)n1 [Compound A]
30.1

Values were extracted from patent US11026944B2.
